- TEST_TARGET: Carbonic anhydrase 13 (Homo sapiens, UniProt Q8N1Q1)
- Sequence (Q8N1Q1 whole entry): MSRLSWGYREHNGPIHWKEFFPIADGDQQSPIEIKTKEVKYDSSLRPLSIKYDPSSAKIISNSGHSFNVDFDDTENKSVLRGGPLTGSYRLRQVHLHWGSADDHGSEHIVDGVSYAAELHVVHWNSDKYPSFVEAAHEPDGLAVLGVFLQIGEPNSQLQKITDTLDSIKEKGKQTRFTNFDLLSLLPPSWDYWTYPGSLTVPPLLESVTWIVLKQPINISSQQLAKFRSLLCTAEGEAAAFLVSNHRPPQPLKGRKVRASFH
- MEASUREMENT_NOTES: Binding affinity to recombinant human CA13 by DSF-based fluorescence thermal shift assay
Quick list: Kd per entry.
Provide only the numeric value, understood in nM.

See these solved cases before continuing.
COMPOUND: COC(=O)C1CC(=O)N(c2cc(C)c(S(N)(=O)=O)c(C)c2Cl)C1 (stereo not given)
RECORDED_MEASUREMENT: 14
--
COMPOUND: Cc1cc(N2CC(C(=O)O)CC2=O)cc(C)c1S(N)(=O)=O (stereo not given)
RECORDED_MEASUREMENT: 8300
--
COMPOUND: Cc1cc(S(N)(=O)=O)c(C)cc1N1CC(C(=O)NN)CC1=O (stereo not given)
RECORDED_MEASUREMENT: 2800
--
COMPOUND: Cc1cc(N2CC(c3n[nH]c(=S)n3-c3ccccc3)CC2=O)cc(C)c1S(N)(=O)=O (stereo not given)
RECORDED_MEASUREMENT: 2000
--
COMPOUND: Cc1cc(N2CC(C(=O)NN)CC2=O)c(Cl)c(C)c1S(N)(=O)=O (stereo not given)
RECORDED_MEASUREMENT: 200

// below: Kd requested for another compound
Lookup result for NS(=O)(=O)c1ccc(NC(=O)C2CC(=O)N(c3cccc(Br)c3)C2)cc1 (stereo not given) ; measured Kd: 1100

---

- TEST_TARGET: Carbonic anhydrase 1 (Homo sapiens)
- Sequence (P00915 whole entry): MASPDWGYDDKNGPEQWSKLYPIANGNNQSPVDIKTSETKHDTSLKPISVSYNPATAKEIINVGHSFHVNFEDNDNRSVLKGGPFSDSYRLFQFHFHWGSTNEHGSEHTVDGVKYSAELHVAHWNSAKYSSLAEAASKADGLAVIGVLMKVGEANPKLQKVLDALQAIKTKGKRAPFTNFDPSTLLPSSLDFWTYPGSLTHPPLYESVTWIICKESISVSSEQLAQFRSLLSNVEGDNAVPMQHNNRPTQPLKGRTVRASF
- MEASUREMENT_NOTES: Binding affinity to recombinant human CA1 by DSF-based fluorescence thermal shift assay
READOUT_NAME: pKd
# log scale: pKd equals minus log10 of the concentration in mol/L

COMPOUND: Cc1cc(N2CC(C(=O)N/N=C/c3ccc(Br)cc3)CC2=O)c(Cl)c(C)c1S(N)(=O)=O (centres undefined)
RECORDED_MEASUREMENT: 6.25

// pKd (Carbonic anhydrase 1 (Homo sapiens)) for NS(=O)(=O)c1ccc(NC(=O)C2CC(=O)N(c3ccc(Br)cc3)C2)cc1 (centres undefined) = 5.48

Reported pKd (Carbonic anhydrase 1 (Homo sapiens)) for entry Cc1cc(S(N)(=O)=O)c(C)cc1N1CC(C(=O)NN)CC1=O (centres undefined) is 4.24

Param item: Cc1cc(NC(=O)C2CC(=O)N(c3ccccc3)C2)cc(C)c1S(N)(=O)=O (centres undefined) ; param system: Carbonic anhydrase 1 (Homo sapiens); output pKd: 5.80

Let me check: COc1ccc(/C=N/NC(=O)C2CC(=O)N(c3cc(C)c(S(N)(=O)=O)c(C)c3)C2)cc1 (centres undefined) , system Carbonic anhydrase 1 (Homo sapiens), measured pKd is 5.70

---

- TEST_TARGET: Carbonic anhydrase 6 (Homo sapiens, UniProt P23280)
- Sequence (P23280 whole entry): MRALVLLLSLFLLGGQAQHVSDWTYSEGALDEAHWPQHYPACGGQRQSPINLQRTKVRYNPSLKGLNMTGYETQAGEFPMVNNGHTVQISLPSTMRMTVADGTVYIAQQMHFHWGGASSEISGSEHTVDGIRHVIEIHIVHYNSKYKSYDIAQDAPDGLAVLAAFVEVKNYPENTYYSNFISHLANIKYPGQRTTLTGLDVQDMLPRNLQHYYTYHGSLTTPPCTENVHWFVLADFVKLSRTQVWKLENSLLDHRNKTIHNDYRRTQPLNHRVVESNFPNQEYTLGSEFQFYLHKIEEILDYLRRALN
- MEASUREMENT_NOTES: Binding affinity to recombinant human CA6 by DSF-based fluorescence thermal shift assay
Listed below: pKd values for each entry.
Please treat pKd as minus the base-10 logarithm of the molar concentration.

Item: Cc1cc(N2CC(c3n[nH]c(=S)o3)CC2=O)cc(C)c1S(N)(=O)=O (centres undefined) | pKd: 4.30

According to the records, this molecule COC(=O)C1CC(=O)N(c2cc(C)c(S(N)(=O)=O)cc2C)C1 (centres undefined) displays pKd of 4.54

Field pKd (entry Cc1cc(N2CC(C(=O)N/N=C/c3ccccc3)CC2=O)cc(C)c1S(N)(=O)=O (centres undefined) ) reads 4.60

The recorded pKd for Cc1cc(N2CC(c3n[nH]c(=S)n3-c3ccccc3)CC2=O)c(Cl)c(C)c1S(N)(=O)=O (centres undefined) is 5.51

For Cc1cc(N2CC(C(=O)NN)CC2=O)cc(C)c1S(N)(=O)=O (centres undefined) the molecule record lists pKd as 4.30

GET /value?item= Cc1cc(N2CC(C(=O)NN)CC2=O)c(Cl)c(C)c1S(N)(=O)=O (centres undefined) &field=pKd returns 5.32

Noted for Cc1cc(N2CC(C(=O)N/N=C/c3ccc(Cl)cc3)CC2=O)c(Cl)c(C)c1S(N)(=O)=O (centres undefined) : its pKd reads 6.19

Lab book: pKd of NS(=O)(=O)c1ccc(N2CC(C(=O)O)CC2=O)cc1 (centres undefined) noted as 5.17

Looking up Cc1cc(N2CC(C(=O)NNC(=S)Nc3ccccc3)CC2=O)c(Cl)c(C)c1S(N)(=O)=O (centres undefined) , I see its pKd listed as 5.66

Recorded result, Cc1cc(S(N)(=O)=O)c(C)cc1N1CC(C(=O)N/N=C/c2ccc([N+](=O)[O-])cc2)CC1=O (centres undefined) , pKd: 5.00

The molecule listed as Cc1cc(NC(=O)C2CC(=O)N(c3ccccc3)C2)cc(C)c1S(N)(=O)=O (centres undefined) has a reported pKd of 4.35

Recorded pKd (molecule COc1ccc(/C=N/NC(=O)C2CC(=O)N(c3cc(C)c(S(N)(=O)=O)c(C)c3)C2)cc1 (centres undefined) ): 4.85

For this molecule ( Cc1cc(N2CC(C(=O)N/N=C/c3ccc([N+](=O)[O-])cc3)CC2=O)c(Cl)c(C)c1S(N)(=O)=O (centres undefined) ), measured pKd is 6.09

Value of measured pKd for the entry COc1ccc(/C=N/NC(=O)C2CC(=O)N(c3cc(C)c(S(N)(=O)=O)c(C)c3Cl)C2)cc1 (centres undefined) : 6.23

Per the records, this molecule ( Cc1cc(N2CC(c3n[nH]c(=S)o3)CC2=O)c(Cl)c(C)c1S(N)(=O)=O (centres undefined) ) has pKd equal to 5.48

Please fill in: pKd reported for NS(=O)(=O)c1ccc(N2CC(C(=O)N/N=C/c3ccccc3)CC2=O)cc1 (centres undefined) = 5.70

---

- TEST_TARGET: Carbonic anhydrase 6 (Homo sapiens, UniProt P23280)
- MEASUREMENT_NOTES: Binding affinity to recombinant human CA6 by DSF-based fluorescence thermal shift assay
Please use Yes for Kd under 10 µM and No for everything else, ties included.

COMPOUND: COC(=O)C1CC(=O)N(c2ccc(S(N)(=O)=O)cc2)C1 (stereo unspecified)
GROUP_LABEL: Yes

COMPOUND: NS(=O)(=O)c1ccc(NC(=O)C2CC(=O)N(c3cccc(Br)c3)C2)cc1 (stereo unspecified)
GROUP_LABEL: Yes

COMPOUND: Cc1cc(C)n(C(=O)C2CC(=O)N(c3cc(C)c(S(N)(=O)=O)c(C)c3)C2)n1 (stereo unspecified)
GROUP_LABEL: No

COMPOUND: Cc1cc(C)n(C(=O)C2CC(=O)N(c3cc(C)c(S(N)(=O)=O)c(C)c3Cl)C2)n1 (stereo unspecified)
GROUP_LABEL: Yes

COMPOUND: Cc1cc(N2CC(c3n[nH]c(=S)n3-c3ccccc3)CC2=O)cc(C)c1S(N)(=O)=O (stereo unspecified)
GROUP_LABEL: No

Task: Please determine if Cc1cc(N2CC(C(=O)N/N=C/c3ccc(Cl)cc3)CC2=O)cc(C)c1S(N)(=O)=O (stereo unspecified) is below 10 µM in terms of Kd.
Output: No

Task: is_below(Kd, 10 µM) for COC(=O)C1CC(=O)N(c2cc(C)c(S(N)(=O)=O)c(C)c2Cl)C1 (stereo unspecified) ?
Output: Yes

Task: Quick check: does Cc1cc(S(N)(=O)=O)c(C)cc1N1CC(C(=O)N/N=C/c2ccccc2)CC1=O (stereo unspecified) have Kd under 10 µM?
Output: Yes

Task: Determine whether this compound shows Kd lower than 10 µM (ties excluded): Cc1cc(C)n(NC(=O)C2CC(=O)N(c3cc(C)c(S(N)(=O)=O)c(C)c3)C2)n1 (stereo unspecified)
Output: No

---

- TEST_TARGET: Carbonic anhydrase 5B, mitochondrial (Homo sapiens, UniProt Q9Y2D0)
- Sequence (Q9Y2D0 whole entry): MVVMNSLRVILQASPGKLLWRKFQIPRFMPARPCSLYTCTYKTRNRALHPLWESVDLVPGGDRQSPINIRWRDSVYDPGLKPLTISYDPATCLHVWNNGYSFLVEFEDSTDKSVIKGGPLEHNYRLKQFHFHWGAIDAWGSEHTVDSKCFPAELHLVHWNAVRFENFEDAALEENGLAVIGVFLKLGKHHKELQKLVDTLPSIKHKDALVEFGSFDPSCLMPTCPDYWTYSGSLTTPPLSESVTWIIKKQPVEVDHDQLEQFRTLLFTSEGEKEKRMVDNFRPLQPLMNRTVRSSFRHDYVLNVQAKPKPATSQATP
- MEASUREMENT_NOTES: Binding affinity to recombinant full length N-terminal His6x-tagged human CA5B expressed in Escherichia coli Rosetta 2 (DE3) by DSF-based fluorescence thermal shift assay
pKd: −log10 of the molar value.
// class assignment uses pKd with these ranges: bottom = under 6, middle = from 6 up to 7, top = 7 and over

Example entries and their recorded answers appear below.
COMPOUND: Cc1cc(C)n(C(=O)C2CC(=O)N(c3cc(C)c(S(N)(=O)=O)c(C)c3Cl)C2)n1 (stereo not given)
GROUP_LABEL: top
--
COMPOUND: Cc1cc(N2CC(c3n[nH]c(=S)o3)CC2=O)c(Cl)c(C)c1S(N)(=O)=O (stereo not given)
GROUP_LABEL: middle
--
COMPOUND: Cc1cc(N2CC(c3n[nH]c(=S)o3)CC2=O)cc(C)c1S(N)(=O)=O (stereo not given)
GROUP_LABEL: bottom
--
COMPOUND: Cc1cc(N2CC(C(=O)NN3CC(C(=O)O)CC3=O)CC2=O)cc(C)c1S(N)(=O)=O (stereo not given)
GROUP_LABEL: bottom

Task: Given Cc1cc(NCC(CC(=O)O)c2n[nH]c(=S)n2-c2ccccc2)cc(C)c1S(N)(=O)=O (stereo not given) , name the class its pKd places it in.
Output: bottom

Task: Exercise: read the entry Cc1cc(C)n(NC(=O)C2CC(=O)N(c3cc(C)c(S(N)(=O)=O)c(C)c3)C2)n1 (stereo not given) and state which class it falls under.
Output: middle
